Listed here: items and their measured log10 of koff.
Target: T1, human IL-17A/F (human, UniProt Q16552 24-155; Q96PD4 31-163)
T1 construct: Heterodimer of IL-17A and IL-17F, purified recombinant; also called HuIL-17A/F; Hu IL-17A/F
T1 sequence (Q16552 24-155 limits assumed, chain 1 of 2): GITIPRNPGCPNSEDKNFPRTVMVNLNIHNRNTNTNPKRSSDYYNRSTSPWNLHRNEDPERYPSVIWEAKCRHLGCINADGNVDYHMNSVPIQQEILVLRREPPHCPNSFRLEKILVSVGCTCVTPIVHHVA
T1 sequence (Q96PD4 31-163 limits assumed, chain 2 of 2): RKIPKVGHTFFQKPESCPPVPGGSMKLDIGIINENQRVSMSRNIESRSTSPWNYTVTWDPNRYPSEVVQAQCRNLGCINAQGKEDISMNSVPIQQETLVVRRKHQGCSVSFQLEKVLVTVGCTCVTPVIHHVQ
Test: SPR Biacore, captured binder
Recorded koff (log10, s⁻¹)

Record excerpt, results attached:
[
  {
    "binder": "IL17-B6-17 (antibody, V domains shown) VH: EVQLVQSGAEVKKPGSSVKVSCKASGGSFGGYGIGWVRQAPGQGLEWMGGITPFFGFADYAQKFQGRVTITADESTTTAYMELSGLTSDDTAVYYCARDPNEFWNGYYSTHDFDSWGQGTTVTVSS VL: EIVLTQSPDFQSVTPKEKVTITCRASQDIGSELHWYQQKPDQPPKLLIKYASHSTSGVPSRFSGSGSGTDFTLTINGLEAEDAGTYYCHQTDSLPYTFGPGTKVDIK",
    "experimental.endpoint": "log10 of koff",
    "quantitative.readout": -4.91
  },
  {
    "binder": "IL17-G9-1 (antibody, V domains shown) VH: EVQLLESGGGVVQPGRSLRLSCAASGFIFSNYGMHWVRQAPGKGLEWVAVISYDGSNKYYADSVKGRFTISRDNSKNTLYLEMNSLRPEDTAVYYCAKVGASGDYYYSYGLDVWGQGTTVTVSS VL: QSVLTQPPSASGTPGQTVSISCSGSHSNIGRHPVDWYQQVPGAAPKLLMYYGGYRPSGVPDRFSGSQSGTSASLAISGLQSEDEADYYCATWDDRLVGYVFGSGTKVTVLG",
    "experimental.endpoint": "log10 of koff",
    "quantitative.readout": -6.00
  },
  {
    "binder": "IL17-G9-M2 (antibody, V domains shown, converted into IgG) VH: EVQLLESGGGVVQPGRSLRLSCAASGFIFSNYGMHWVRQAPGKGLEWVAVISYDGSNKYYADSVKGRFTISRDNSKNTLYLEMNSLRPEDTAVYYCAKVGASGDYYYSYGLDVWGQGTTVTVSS VL: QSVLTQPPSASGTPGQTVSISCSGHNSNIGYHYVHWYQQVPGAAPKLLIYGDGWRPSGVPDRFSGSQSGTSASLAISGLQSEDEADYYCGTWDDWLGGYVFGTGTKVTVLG",
    "experimental.endpoint": "log10 of koff",
    "quantitative.readout": -5.85
  },
  {
    "binder": "IL17-B6-15 (antibody, V domains shown) VH: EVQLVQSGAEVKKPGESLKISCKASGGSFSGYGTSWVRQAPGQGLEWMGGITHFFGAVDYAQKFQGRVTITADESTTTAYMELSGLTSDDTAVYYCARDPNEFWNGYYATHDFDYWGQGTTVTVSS VL: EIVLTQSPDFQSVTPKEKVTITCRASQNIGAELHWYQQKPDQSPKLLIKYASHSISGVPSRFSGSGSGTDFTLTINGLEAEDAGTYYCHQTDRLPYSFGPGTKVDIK",
    "experimental.endpoint": "log10 of koff",
    "quantitative.readout": -4.24
  },
  {
    "binder": "IL17-B6-5 (antibody, V domains shown, also called pJP243 B6.1 #5VH / pJP244 B6.1 #5VK) VH: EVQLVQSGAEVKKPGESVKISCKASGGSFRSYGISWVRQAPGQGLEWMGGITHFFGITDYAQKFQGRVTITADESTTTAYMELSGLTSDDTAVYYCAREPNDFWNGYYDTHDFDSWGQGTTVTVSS VL: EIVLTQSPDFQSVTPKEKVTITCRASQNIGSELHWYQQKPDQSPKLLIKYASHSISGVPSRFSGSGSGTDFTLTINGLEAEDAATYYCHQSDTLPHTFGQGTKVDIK",
    "experimental.endpoint": "log10 of koff",
    "quantitative.readout": -4.53
  },
  {
    "binder": "IL17-G9-M1 (antibody, V domains shown) VH: EVQLLESGGGVVQPGRSLRLSCAASGFIFSNYGMHWVRQAPGKGLEWVAVISYDGGYKYYADSVKGRFTISRDNSKNTLYLEMNSLRPEDTAVYYCAKLSLSGDYYYSYGFDGWGQGTTVTVSS VL: QSVLTQPPSASGTPGQTVSISCSGSKSNIGSHYVHWYQQVPGAAPKLLMYDFGQRPSGVPDRFSGSQSGTSASLAISGLQSEDEADYYCGTWDDWLGGYVFGTGTKVTVLG",
    "experimental.endpoint": "log10 of koff",
    "quantitative.readout": -4.40
  },
  {
    "binder": "IL17-G9-4 (antibody, V domains shown, converted into IgG) VH: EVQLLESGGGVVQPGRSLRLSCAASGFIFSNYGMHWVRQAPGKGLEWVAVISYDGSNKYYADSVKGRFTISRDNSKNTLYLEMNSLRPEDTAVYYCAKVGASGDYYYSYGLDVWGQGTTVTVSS VL: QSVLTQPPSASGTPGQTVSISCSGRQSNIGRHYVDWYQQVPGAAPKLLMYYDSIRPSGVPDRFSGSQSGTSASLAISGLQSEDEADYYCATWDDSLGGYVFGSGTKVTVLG",
    "experimental.endpoint": "log10 of koff",
    "quantitative.readout": -6.00
  },
  {
    "binder": "IL17-TN-L7-G9 (antibody, V domains shown, Fully human antibody) VH: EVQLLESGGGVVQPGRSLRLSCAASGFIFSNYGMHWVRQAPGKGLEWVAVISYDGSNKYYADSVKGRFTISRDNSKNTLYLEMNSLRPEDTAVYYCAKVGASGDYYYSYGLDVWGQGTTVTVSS VL: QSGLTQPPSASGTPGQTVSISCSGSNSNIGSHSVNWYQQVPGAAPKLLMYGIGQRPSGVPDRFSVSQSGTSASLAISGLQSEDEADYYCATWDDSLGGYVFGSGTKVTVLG",
    "experimental.endpoint": "log10 of koff",
    "quantitative.readout": -4.01
  },
  {
    "binder": "IL17-TN-K7-B6 (antibody, V domains shown, Fully human antibody) VH: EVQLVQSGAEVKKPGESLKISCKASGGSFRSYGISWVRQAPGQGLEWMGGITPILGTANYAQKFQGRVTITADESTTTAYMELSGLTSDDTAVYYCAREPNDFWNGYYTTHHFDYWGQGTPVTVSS VL: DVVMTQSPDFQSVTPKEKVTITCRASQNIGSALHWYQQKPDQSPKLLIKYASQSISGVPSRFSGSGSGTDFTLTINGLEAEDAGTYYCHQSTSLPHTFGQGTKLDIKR",
    "experimental.endpoint": "log10 of koff",
    "quantitative.readout": -3.76
  },
  {
    "binder": "IL17-B6-16 (antibody, V domains shown) VH: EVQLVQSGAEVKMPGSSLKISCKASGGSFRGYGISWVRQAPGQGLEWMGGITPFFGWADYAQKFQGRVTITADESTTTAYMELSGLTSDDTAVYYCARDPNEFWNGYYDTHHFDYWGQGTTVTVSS VL: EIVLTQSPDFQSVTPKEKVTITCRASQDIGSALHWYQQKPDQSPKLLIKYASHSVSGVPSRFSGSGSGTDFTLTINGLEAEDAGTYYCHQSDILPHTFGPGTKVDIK",
    "experimental.endpoint": "log10 of koff",
    "quantitative.readout": -4.18
  }
]

Alright, here's another binder for you.
q: Supply recorded log10 of koff for IL17-G9-2 (antibody, V domains shown) VH: EVQLLESGGGVVQPGRSLRLSCAASGFIFRNYGMHWVRQAPGKGLEWVAVISYDGSNKYYADSVKGRFTISRDNSKNTLYLEMNSLRPEDTAVYYCAKVGASGDYYYSYGLDVWGQGTTVTVSS VL: QSVLTQPPSASGTPGQTVSISCSGSNSNIGRHPVDWYQQVPGAAPKLLIYYDDQRPSGVPDRFSGSQSGTSASLAISGLQSEDEADYYCATWDDSLGGYVFGSGTKVTVLG here.
a: -4.06
